Test system: KB-3-1
Assay: Cytotoxic Profiling of Annotated Libraries Using Quantitative High-Throughput Screening (AID 1296008); note: % is set by controls: 0 for no effect and ±100 for the full control effect; nearly all actives have a fitted effect of over 60% in size
Settings: Five cell lines viability, CellTiter-Glo ATP luminescence, 48-72 h; stronger effect = lower value
Records with an inconclusive call do not appear.
Kindly state max response for each of the entries shown.
Give your result in % as a bare value.

Problem: Given COc1cc([C@H]2OC[C@](O)(Cc3ccc(O[C@@H]4O[C@H](CO)[C@@H](O)[C@H](O)[C@H]4O)c(OC)c3)[C@@H]2CO)ccc1O , state its recorded max response.
Solution: 0.848

Problem: Consider the molecule shown here: COc1c(O[C@@H]2O[C@H](CO)[C@@H](O)[C@H](O)[C@H]2O)c(CCC(=O)O)cc2ccoc12 What is its recorded max response?
Solution: 2.96

Problem: Fill blank: measured max response of the molecule Nc1nc(COC(=O)c2ccc([N+](=O)[O-])cc2)nc(Nc2ccccc2)n1 is ____.
Solution: -4.58

Problem: Need max response of C[C@H]1CC[C@H]2[C@@H](C=C[C@@](C)(O)[C@]2(C)C(=O)CCO)C1 , thanks.
Solution: 5.8

Problem: Given the molecule CC(=O)O[C@@]1(C)[C@@H]2CC(=C(C)C)C(=O)C[C@@]2(C)CC[C@H]1OC(=O)C1(C)OC1C (stereo partly drawn) , what is its reported max response?
Solution: 0.573

Problem: Would you mind telling me what max response value was observed for C[C@H]1[C@H](C)C[C@@H](C(=O)O)C2CC[C@]3(C)C(=CC[C@@H]4[C@@]5(C)CC[C@H](O)C(C)(C)[C@@H]5CC[C@]43C)[C@@H]21 (stereo partly drawn) ?
Solution: 8.63

Problem: What value of measured max response is listed for CC1=C2CC3C(CCC3(C)O)C(C)(O)CC2OC1=O (stereo not drawn) ?
Solution: 6.46

Problem: Which measured max response value corresponds to COc1cc(C(=O)OC[C@@]2(O)CO[C@@H](O[C@H]3[C@H](Oc4ccc(O)cc4)O[C@H](CO)[C@@H](O)[C@@H]3O)[C@@H]2O)cc(OC)c1O ?
Solution: -0.593

Problem: Which max response reading was recorded for the molecule CC1(C)CC(NC(=O)C(=O)Nc2ccc(Cl)cc2)CC(C)(C)N1 ?
Solution: 4.82

Problem: Look up max response: Oc1ccccc1-c1cc(-c2ccccc2F)[nH]n1
Solution: -0.368

Problem: For the molecule CCC(CC)CC1(C(=O)Nc2ccccc2SC(=O)C(C)C)CCCCC1 , what max response is on record?
Solution: 0.494

Problem: // lookup max response for Cc1cc(OCCN2CCOCC2)nn1-c1ccc2ccccc2c1
Solution: -10.7

Problem: Which max response reading was recorded for the molecule CC(C)(CC(=O)N1CCCC1)NCC(=O)N1C[C@@H](F)C[C@H]1C#N ?
Solution: 1.01

Problem: Fill in: max response of C=C(C(=O)O)[C@@H]1CC[C@@]2(C)CC[C@@H](O)C(=C)C2C1 (stereo partly drawn) is ___
Solution: -6.38

Problem: # input molecule: CC(=O)O[C@@H]1[C@H](OC(C)=O)C[C@@]2(C)C(CC[C@@H](C)[C@]23Cc2c(O)cc4c(c2O3)CN([C@@H](CCC(=O)O)C(=O)O)C4=O)C1(C)C (stereo partly drawn) ; wanted: its max response
Solution: 5.86

Problem: Request the reported max response associated with CC1=CCC[C@@H]2[C@@](C)(CCc3ccoc3)[C@H](C(=O)O)CC[C@@]12C
Solution: -0.465

Problem: Which max response is reported for this molecule? COC(O)(CC(C)C)C1Oc2cc(C)[nH]c(=O)c2O1 (stereo not drawn)
Solution: 6.46

Problem: Which max response value belongs to Cc1nnc(-c2sc(NC(=O)[C@H](C(C)C)n3c(=O)[nH]c4ccccc4c3=O)nc2C)o1 ?
Solution: 8.7

---

System: CRL-7250
Assay: Cytotoxic Profiling of Annotated Libraries Using Quantitative High-Throughput Screening (AID 1296008); note: % is set by controls: 0 for no effect and ±100 for the full control effect; nearly all actives have a fitted effect of over 60% in size
Conditions: Five cell lines viability, CellTiter-Glo ATP luminescence, 48-72 h; stronger effect = lower value
Records with an inconclusive call do not appear.
Could you please report measured max response for the items listed next?
The figure you give is taken to be in %; do not add the unit.

Problem: Give max response (CRL-7250) of the following compound: Cc1ccc(Cl)cc1N(CC(=O)Nc1c(F)cccc1F)S(C)(=O)=O
Solution: -3.38

Problem: Request - read-out max response | tested on CRL-7250 | compound COC(=O)[C@]1(C)CCC[C@@]2(C)C(=O)CC[C@H]3C(=O)C=C(CC[C@@H]21)C3O (some centres undefined)
Solution: -8.93

Problem: Given the entry Oc1ccc2c(-c3c(-c4ccccn4)nn4c3CCC4)ccnc2c1 , what max response was observed with CRL-7250?
Solution: -1.66

Problem: Can you look up max response on CRL-7250 for CC(C)C1(O)C=C2C(=O)CC3C(C)(C(=O)O)CCCC3(C)C2CC1 (centres undefined) ?
Solution: 3.97

Problem: // map O=C(OCC1OC(Oc2ccc(O)cc2COC(=O)C2(O)C(O)CCC(=O)C2OC(=O)C2C=CCC2)C(OC(=O)C2C=CCC2)C(O)C1O)C1C=CCC1 (centres undefined) to recorded max response (system: CRL-7250)
Solution: -0.0328

Problem: API: value(readout= max response, system= CRL-7250, query= COc1c(C)c(OCC=C(C)C)cc2c1CNC2=O )
Solution: -2.67

Problem: Write down the reported max response of COc1ccc(C2(O)c3ccccc3NC(=O)C2OC)cc1 (centres undefined) , test system: CRL-7250.
Solution: -6.47

Problem: Fill in the recorded max response for this compound, with CRL-7250 as test system: CC1(C)COC(=O)[C@@H]1O[C@@H]1O[C@H](CO)[C@@H](O)[C@H](O)[C@H]1O
Solution: 4.71

Problem: Query max response on CRL-7250 for O=C(Nc1cc(-c2ccccc2)nn1-c1ccccc1F)c1ccc([N+](=O)[O-])cc1
Solution: -9.65

---

Test system: Nanoluciferase (engineered Oplophorus gracilirostris luciferase)
Assay: Primary Nanoluciferase (NLuc) qHTS assay for identification of artifact compounds. (AID 1845222);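 note: NLuc secreted into diluted conditioned medium of S16 cells; 0% = DMSO and -100% = no enzyme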
Conditions: NLuc-conditioned medium, Nano-Glo luminescence, 5 min; series mostly up to 54.1 µM
The source made the active and inactive calls. Calls come from the whole dose curve; as a rule, active = well fitted inhibition curve with a large enough effect; inconclusive = small, poorly fitted or top-dose-only effect; inactive = flat fitted curve, though single readings scatter.
readout kind: activity, negative = inhibition

Study these solved cases before continuing.
- compound: "C[C@@H]1O[C@@H](O[C@H]2[C@H](O)[C@@H](O)[C@H](OC[C@H]3O[C@@H](OC(=O)[C@]45CCC(C)(C)C[C@H]4C4=CCC6[C@@]7(C)C[C@@H](O)[C@H](O)[C@@](C)(CO)C7[C@H](O)C[C@@]6(C)[C@]4(C)CC5)[C@H](O)[C@@H](O)[C@@H]3O)O[C@@H]2CO)[C@H](O)[C@H](O)[C@H]1O (stereo partly specified)"
  assay target: "Nanoluciferase (engineered Oplophorus gracilirostris luciferase)"
  activity, negative = inhibition: "1.41% [at 11.6 µM] (inactive)"
- compound: "O=C(O)c1cccc(C(=O)CCC2OC(n3cnc4c(=O)[nH]cnc43)C(O)C2O)c1 (stereo unspecified)"
  assay target: "Nanoluciferase (engineered Oplophorus gracilirostris luciferase)"
  activity, negative = inhibition: "inactive"
- compound: "O=C(O)Cn1nnc(-c2ccc(CN(CCCCOc3ccc(CN4CCCC4)cc3)CCc3ccccc3)cc2)n1"
  assay target: "Nanoluciferase (engineered Oplophorus gracilirostris luciferase)"
  activity, negative = inhibition: "inactive"
- compound: "NC[C@H]1CCC[C@@H](CNC(=O)[C@@H](Cc2c[nH]c3ccccc23)NC(=O)N2CCC3(C=Cc4ccccc43)CC2)C1"
  assay target: "Nanoluciferase (engineered Oplophorus gracilirostris luciferase)"
  activity, negative = inhibition: "inactive"
- compound: "CC1(C)OC(=O)CC(O)C2(C)C1CC(=O)C1(C)C2C(O)CC2(C)C(c3ccoc3)OC(=O)C3OC321 (stereo unspecified)"
  assay target: "Nanoluciferase (engineered Oplophorus gracilirostris luciferase)"
  activity, negative = inhibition: "inactive"

Kindly review the next compound as well.
Problem: Query (compound): C=C(C)[C@@]1(O)C[C@@]2(C)C(=CC1=O)CC[C@@H](O)[C@@H]2C ; field requested: activity, negative = inhibition
Solution: inactive

---

Tested on: Tov-21-G
Test: Primary qHTS to identify gynecologic anti-cancer compounds using libraries of approved drugs and bioactive compounds (AID 1345084); note: % is set by controls: 0 for no effect and ±100 for the full control effect; nearly all actives have a fitted effect of over 55% in size
Conditions: Gynecologic cancer cell panel viability, ATPlite luminescence, 48 h; series mostly up to 57.5 µM
Results filed as inconclusive are left out. Calls of active or inactive are those of the source. Calls come from the whole dose curve; as a rule, active = well fitted cell-killing curve with a large enough effect; inconclusive = small, poorly fitted or top-dose-only effect, or effect the other way; inactive = flat fitted curve, though single readings scatter.
readout kind: activity change, negative = cytotoxicity

- compound: "N#Cc1cccc(-c2c[nH]c3ncnc(N4CCOCC4)c23)c1"
  assay target: "Tov-21-G"
  activity change, negative = cytotoxicity: "inactive"
- compound: "CC1=C(CC/C(C)=C/C(=O)O)[C@@]2(C)CCCC(C)(C)C2CC1=O (stereo partly specified)"
  assay target: "Tov-21-G"
  activity change, negative = cytotoxicity: "inactive"
- compound: "C[C@@H]1O[C@@H](O[C@@H]2[C@@H](O)[C@H](O[C@H]3[C@H](O[C@H]4CC[C@@]5(C)C(CC[C@]6(C)C5CC=C5[C@@H]7CC(C)(C)CC[C@]7(C(=O)O[C@@H]7O[C@H](CO)[C@@H](O)[C@H](O)[C@H]7O)CC[C@]56C)C4(C)C)O[C@H](C(=O)O)[C@@H](O)[C@@H]3O)OC[C@H]2O)[C@H](O)[C@H](O)[C@H]1O (stereo partly specified)"
  assay target: "Tov-21-G"
  activity change, negative = cytotoxicity: "1.4% [at 11.6 µM] (inactive)"
- compound: "CC(C)=C1C[C@@]2(C)C(=CC1=O)CC[C@@H](O)[C@@H]2C"
  assay target: "Tov-21-G"
  activity change, negative = cytotoxicity: "inactive"
- compound: "Cc1cc(CNC(=O)c2cc(C(=O)NCc3ccc(F)c(C)c3)ncn2)ccc1F"
  assay target: "Tov-21-G"
  activity change, negative = cytotoxicity: "inactive"

Problem: Given the compound CC(=O)OC1CC2(C)C(CCC(C)C23Cc2c(O)cc4c(c2O3)CNC4=O)C(C)(C)C1O (stereo unspecified) , what is its reported activity change, negative = cytotoxicity?
Solution: inactive
